assay.system: OsSMF1 (Oryza sativa, UniProt Q6ZLB0 1-436)
Sequence: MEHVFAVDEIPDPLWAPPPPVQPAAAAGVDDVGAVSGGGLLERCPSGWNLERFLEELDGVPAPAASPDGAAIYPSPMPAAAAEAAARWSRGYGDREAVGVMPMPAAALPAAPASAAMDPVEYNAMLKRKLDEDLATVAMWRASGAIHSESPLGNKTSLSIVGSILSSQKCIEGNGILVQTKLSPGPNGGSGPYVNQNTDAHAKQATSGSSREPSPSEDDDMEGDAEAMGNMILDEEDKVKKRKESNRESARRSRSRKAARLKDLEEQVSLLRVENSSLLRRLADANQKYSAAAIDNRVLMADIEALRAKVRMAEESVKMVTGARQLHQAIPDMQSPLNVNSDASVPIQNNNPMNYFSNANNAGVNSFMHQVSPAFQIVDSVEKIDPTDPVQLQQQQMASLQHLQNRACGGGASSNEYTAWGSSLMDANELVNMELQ
experimental.details: protein-binding microarray (RPBM); PBS, 2% BSA, 51.3 ng/ul salmon testes DNA, 50 uM zinc acetate, 200 nM TF, 25 C, 1 h; high values mean tight binding
condition.details: protein: recombinant; tags: N-terminal polyhistidine and DsRed monomer fusion (pET32a); chain copies: 2; label: CyDye5-dUTP incorporated in the synthesized complementary strand; 3' TTTTT single-stranded linker to array surface; dsDNA, one strand shown
In all, about 39,000 sequences were measured (“fluorescence intensity (a.u.)”: median about 4,300, highest 2% from about 39,000 on). Shown is part of a subset that was picked to be rich in the highest values.
observable: binding signal

* ATAAAATTTTATGATATATAGATAATAATTTTACTTGCAACGGAGTCACCTAGTGCAG | 4550 fluorescence intensity (a.u.)
* ACTTTTCCGTCACATCGTTTTAATTTCTTTAAACTTTTAACGGAGTCACCTAGTGCAG | 4680 fluorescence intensity (a.u.)
* TGGTAAGGTTGAAAATGGCATCAAAGTGAACAGGCCCTCACGGAGTCACCTAGTGCAG | 22200 fluorescence intensity (a.u.)
* CGAACATAAGTTAGTGACGCATGCCTCAAAATGAAAAGGACGGAGTCACCTAGTGCAG | 41400 fluorescence intensity (a.u.)
* TCACCACCTCACTCCACTAACCAGAGAGAGAACGCAGCTACGGAGTCACCTAGTGCAG | 21000 fluorescence intensity (a.u.)
* TATGTCAATACTGTATGCATATATTAACATAAAATATCTCCGGAGTCACCTAGTGCAG | 4760 fluorescence intensity (a.u.)
* CACTCCGGCGTGACGGAGCCCTTCCCCGATGTGATGCCTACGGAGTCACCTAGTGCAG | 32600 fluorescence intensity (a.u.)
* TTGTACCAGCTAACTCATCACCACGCAGGCCAGAGTAGTACGGAGTCACCTAGTGCAG | 45900 fluorescence intensity (a.u.)
* ACAATTACTGTATTGTGCATATAAGCTGCATATCTATCACCGGAGTCACCTAGTGCAG | 39900 fluorescence intensity (a.u.)
* TTTCTCGGAATTTCTGGAAATTTTCTTGGAATTAGTAGAACGGAGTCACCTAGTGCAG | 65500 fluorescence intensity (a.u.)
* ACCAGGTGGCTACAGCTGGCTAAATACCCAGTCACTACCACGGAGTCACCTAGTGCAG | 3680 fluorescence intensity (a.u.)
* CATCACGCTGACGTGTCCTTTCGTTTGGACACGGACATCTCGGAGTCACCTAGTGCAG | 15000 fluorescence intensity (a.u.)
* CCCGCGTCGCATTCAACGCCACGCACACCACTCCACTCCACGGAGTCACCTAGTGCAG | 3470 fluorescence intensity (a.u.)
* ATCACTCTACTTTGTCTGTGTCATATTATAAGCTGCTTGACGGAGTCACCTAGTGCAG | 5640 fluorescence intensity (a.u.)
* GCGGCTCGCCGTCATATGCGACGTGGCATGCACGACGCCGCGGAGTCACCTAGTGCAG | 14300 fluorescence intensity (a.u.)
* TTCTCCGGCCGCCGCCGCCATCGCCGCCGGCCGTAGCATGCGGAGTCACCTAGTGCAG | 56000 fluorescence intensity (a.u.)
* ATTATTTAAGTGATGATATGTAAATAACGAGTGAAGTTTTCGGAGTCACCTAGTGCAG | 3400 fluorescence intensity (a.u.)
* CTTCTCCTGCATGGCAAGTCGCTGATCACAACTACGCATCCGGAGTCACCTAGTGCAG | 3610 fluorescence intensity (a.u.)
* TATTCTGATTGGAACTTATGAGTCTTGAATTCTTGATTCTCGGAGTCACCTAGTGCAG | 29700 fluorescence intensity (a.u.)
* TGTATTTGCTACCGTTTTCCAATATGTACCGTCATGTTTCCGGAGTCACCTAGTGCAG | 3920 fluorescence intensity (a.u.)
* TACGAATTATGTAATTTGTTTTGTTATTAGTGTACATCTACGGAGTCACCTAGTGCAG | 4070 fluorescence intensity (a.u.)
* TCCTTTGGAACATAAAAGTGACGTAGGCATGCAAATTTGTCGGAGTCACCTAGTGCAG | 13700 fluorescence intensity (a.u.)
* CCCTAGCCCTCGCCCTGGTCCGTCCGGCGTGGCGCGCGCTCGGAGTCACCTAGTGCAG | 5150 fluorescence intensity (a.u.)
* GTTGTTGATGTGATTGTGTGTATTCAAGTAGAGATTGGGTCGGAGTCACCTAGTGCAG | 3240 fluorescence intensity (a.u.)
* TATGGATGGGTTTTATTAATAGTCTACGTTTAATATTTATCGGAGTCACCTAGTGCAG | 4490 fluorescence intensity (a.u.)
